System: Staphylococcus aureus
condition set: Concentration 20 uM; ASSAY_TEST Inhibition of Bacterial Growth; detection method Absorption (OD600); MEDIA CAMHB; plate type 384well; NBS; CORNING #3640; time 18 hr
Description: Antibacterial activity against Staphylococcus aureus MRSA ATCC 43300 (CO-ADD:GP_020); MIC in CAMBH media, using NBS plates, by OD(600)
Results with a measured potency or affinity are listed apart.
Inhibition for assorted compounds
recorded metric: Inhibition (%)

# compound, recorded metric, measure unit, numeric value
measured = [
    ("Cn1ncc2c(N3CCOCC3)nc(NCCc3c[nH]c4ccccc34)nc21", "Inhibition", "%", 12.92),
    ("CCCCc1ccc(NC(=O)Nc2ccc(O[C@H]3CCCC[C@@H]3N(C)c3ccccc3)c(F)c2)cc1", "Inhibition", "%", 12.12),
    ("CC(C(=O)N1CCCC1)N1CCN(S(=O)(=O)c2ccc(C(C)(C)C)cc2)CC1 (centres undefined)", "Inhibition", "%", 8.1),
    ("CNC(=O)C1Cc2ccccc2N1C(=O)Cc1ccc(F)cc1 (centres undefined)", "Inhibition", "%", 16.81),
    ("Cl.Cl.Cl.NS(=O)(=O)c1cncc(-c2ccc3nccc(-c4cn[nH]c4)c3n2)c1", "Inhibition", "%", 9.83),
    ("COc1ccc(Nc2ccccc2NC(=O)c2ccc(O)nc2)cc1", "Inhibition", "%", 8.88),
    ("CC(C)(C)c1cc(C(=O)N2CCN(c3nccnc3C#N)CC2)n(Cc2ccccc2)n1", "Inhibition", "%", 20.75),
    ("CCC(=O)Nc1ccccc1C(=O)Nc1ccccn1", "Inhibition", "%", 18.51),
    ("CC1CCCN(C(=O)C(C)Nc2cc(Cl)ccc2N2CCOCC2)C1 (centres undefined)", "Inhibition", "%", 20.88),
]

* * *

System: Staphylococcus aureus
condition set: Concentration 20 uM; ASSAY_TEST Inhibition of Bacterial Growth; detection method Absorption (OD600); MEDIA CAMHB; plate type 384well; NBS; CORNING #3640; time 18 hr
Potency and affinity values are given separately.
Label 1 (yes) when Inhibition is at or above 20%; anything below gets 0 (no).

# compound, class label
rows = [
    ("CCCCS(=O)(=O)Nc1ccc2cnn(C)c2c1", "0 (no)"),
    ("CC(=O)N(CCN(C(=O)c1ccc(F)cc1)c1ccccc1)c1ccccc1", "0 (no)"),
    ("COc1ccc(-c2nn(C(C)C)c3ncnc(N)c23)cc1OC", "0 (no)"),
    ("CCCn1c(CNc2ccccc2O)nc2ccccc21", "0 (no)"),
    ("CC1CCCCN1C(=O)NCCc1coc(-c2ccc(F)cc2)n1 (stereo not drawn)", "1 (yes)"),
    ("O=C(NCc1ccoc1)N1CCN(Cc2ccc3c(c2)OCO3)CC1", "0 (no)"),
    ("COc1cccc(OCC(=O)c2ccc(Br)cc2)c1", "0 (no)"),
    ("O=C(Cn1ccnc1[N+](=O)[O-])NCc1ccccc1 [BENZNIDAZOLE]", "1 (yes)"),
    ("O=C(NC1=NCCS1)c1sc2cc(F)ccc2c1Cl", "0 (no)"),
    ("Cc1ccc(NC(=O)c2nc[nH]c2C(=O)Nc2nc3ccccc3[nH]2)c(C)c1", "1 (yes)"),
    ("Nc1ncnc2c1c(Cc1cccc3ccccc13)nn2CC1CCNCC1", "0 (no)"),
    ("CC(C)C(NC(=O)Cc1cccc2ccccc12)C(=O)Nc1cccc(C#N)c1 (stereo not drawn)", "0 (no)"),
    ("O=C(Nc1nc(-c2ccccn2)cs1)C1CC1c1ccccc1F (stereo not drawn)", "0 (no)"),
    ("CCCCc1ccc(C(=O)Nc2nccc3ccccc23)nc1", "0 (no)"),
    ("COc1cc(NC(=O)Cc2nn(C)c(=O)c3ccccc23)ccc1Cl", "1 (yes)"),
    ("OC[C@H]1O[C@@H](n2c3ccc(Cl)cc3c3c(-c4cc5ccccc5o4)ncnc32)C(O)[C@H]1O (stereo partly drawn)", "0 (no)"),
    ("O=C(Nc1c(O)cccc1-c1nc2c(C(=O)O)cccc2o1)c1cc(-c2ccccc2)on1", "0 (no)"),
    ("CCOC(=O)c1noc(N)c1-c1ccccc1", "1 (yes)"),
    ("Cc1nc2ccccn2c1C(=O)NCc1ccc(Cl)cc1", "1 (yes)"),
    ("CN1CCN(c2nccc3nc(-c4ccc(F)c(F)c4)[nH]c23)CC1", "0 (no)"),
    ("Cc1ccc(NC(=O)c2cc(S(=O)(=O)NC(C)(C)C)ccc2C)nc1", "1 (yes)"),
    ("Cc1cc2nc(NC(=O)C(C)(C)C)nc(Cl)c2n1Cc1ccc(Cl)cc1", "0 (no)"),
]

Reference source: ChEMBL document CHEMBL4513149
